Target: rat P2X4 (Rattus norvegicus, UniProt P51577)
Construct: expressed in transfected cells
Sequence (P51577 whole entry): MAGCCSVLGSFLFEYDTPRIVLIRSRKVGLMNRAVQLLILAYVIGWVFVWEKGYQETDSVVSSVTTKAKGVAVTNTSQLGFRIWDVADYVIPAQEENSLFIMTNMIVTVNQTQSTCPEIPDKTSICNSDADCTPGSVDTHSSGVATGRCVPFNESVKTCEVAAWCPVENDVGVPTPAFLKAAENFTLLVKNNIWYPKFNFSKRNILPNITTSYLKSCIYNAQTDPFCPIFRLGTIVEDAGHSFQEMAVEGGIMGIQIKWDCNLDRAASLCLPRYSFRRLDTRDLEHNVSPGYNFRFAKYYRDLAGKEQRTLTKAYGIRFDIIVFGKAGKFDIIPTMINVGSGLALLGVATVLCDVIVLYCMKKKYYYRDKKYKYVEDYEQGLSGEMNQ
Experiment: FLIPR Method for Rat P2X4 1321N1 Astrocytoma Cells
Format: cell-based
Settings: 1321N1 stably expressing rat P2X4; agonist MgATP 5 μM (EC80)
Rat P2X4 1321N1 Astrocytoma Cells (FLIPR Assay) avg Efficacy values, listed per item
Please state the figure in %; there is no need to write the unit.

Known results for compounds:
>>> numericreadout("CC(=O)N(c1cc(NC(=O)Cc2ccccc2Cl)ccn1)c1ccc(F)cc1F [Example 126]")
83
>>> numericreadout("CC(=O)N(c1cc(F)cc(F)c1)c1cc(NC(=O)Cc2ccccc2OC(F)(F)F)ccn1 [Example 91]")
100
>>> numericreadout("CC(=O)N(c1ccccc1)c1cc(NC(=O)Cc2ccc(F)cc2Cl)ccn1 [Example 26]")
101
>>> numericreadout("COc1cccc(N(C(C)=O)c2cc(NC(=O)Cc3cccc(F)c3Cl)ccn2)c1 [Example 101]")
100
>>> numericreadout("CC(=O)N(c1ccc(F)c(F)c1)c1cc(NC(=O)Cc2c(Cl)cc(F)cc2Cl)ccn1 [Example 73]")
93
>>> numericreadout("CC(=O)N(c1ccc(Cl)c(F)c1)c1cc(NC(=O)Cc2ccccc2Cl)ccn1 [Example 58]")
86

Task: State its Rat P2X4 1321N1 Astrocytoma Cells (FLIPR Assay) avg Efficacy on rat P2X4 (Rattus norvegicus, UniProt P51577): CC(=O)N(c1ccc(F)c(F)c1)c1cc(NC(=O)Cc2cccc(C)c2C)ccn1 [Example 62]
Result: 91

Task: Any idea what Rat P2X4 1321N1 Astrocytoma Cells (FLIPR Assay) avg Efficacy came out for CC(=O)N(c1cccc(Cl)c1)c1cc(NC(=O)Cc2ccccc2Cl)ccn1 [Example 131] on rat P2X4 (Rattus norvegicus, UniProt P51577)?
Result: 98

Task: Give rat P2X4 (Rattus norvegicus, UniProt P51577) Rat P2X4 1321N1 Astrocytoma Cells (FLIPR Assay) avg Efficacy for CC(=O)N(c1ccc(F)c(F)c1)c1cc(NC(=O)Cc2ccc([N+](=O)[O-])cc2Cl)ccn1 [Example 69]
Result: 100

Task: Lab note: need Rat P2X4 1321N1 Astrocytoma Cells (FLIPR Assay) avg Efficacy with rat P2X4 (Rattus norvegicus, UniProt P51577) for entry CC(=O)N(c1cc(NC(=O)Cc2cccc(F)c2Cl)ccn1)c1ccc(F)cc1F [Example 128] , please look it up.
Result: 87

Task: I'm curious: which Rat P2X4 1321N1 Astrocytoma Cells (FLIPR Assay) avg Efficacy was measured for COc1ccc(CC(=O)Nc2ccnc(N(C(C)=O)c3ccc(F)c(F)c3)c2)c(Cl)c1 [Example 70] tested on rat P2X4 (Rattus norvegicus, UniProt P51577)?
Result: 100

----------
Molecular target: rat P2X4 (Rattus norvegicus, UniProt P51577)
Assay: FLIPR Method for Rat P2X4 1321N1 Astrocytoma Cells
Details: 1321N1 stably expressing rat P2X4; agonist MgATP 5 μM (EC80)
assayEndpoint: log10(IC50) (log10 of the value in nM)
Give log10 of IC50, with IC50 taken in nM.

>>> numericreadout("CC(=O)N(c1ccc(F)c(F)c1)c1cc(NC(=O)Cc2ccc(F)cc2Cl)ccn1")
2.37
>>> numericreadout("CC(=O)N(c1ccccc1)c1cc(NC(=O)Cc2ccccc2Cl)ccn1")
2.93
>>> numericreadout("CC(=O)N(c1cc(F)cc(F)c1)c1cc(NC(=O)Cc2ccccc2C(F)(F)F)ccn1")
3.01
>>> numericreadout("CC(=O)N(c1ccc(F)c(F)c1)c1cc(NC(=O)Cc2c(C)cccc2C)ccn1")
1.81
>>> numericreadout("CC(=O)N(c1ccc(F)cc1)c1cc(NC(=O)Cc2c(Cl)cc(F)cc2Cl)ccn1")
2.18
>>> numericreadout("CC(=O)N(c1ccccc1)c1cc(NC(=O)Cc2c(Cl)cccc2Cl)ccn1")
2.81

Task: Sample CC(=O)N(c1ccc(F)cc1)c1cc(NC(=O)Cc2c(Cl)cccc2C#N)ccn1 — what was its log10(IC50)?
Result: 3.19

Task: # query: log10(IC50) of entry CC(=O)N(c1cc(NC(=O)Cc2c(Cl)cccc2Cl)ccn1)c1ccc(F)cc1F
Result: 2.33

----------
Target: human P2X4 (Homo sapiens, UniProt Q99571)
Construct: expressed in transfected cells
Assay: Human P2X4 HEK Cell FLIPR Assay
Assay type: cell-based
Settings: HEK293 stably expressing human P2X4; agonist Bz-ATP 3 μM (EC80)
Procedure: Compounds were tested on a HEK293 cell line stably expressing human P2X4. Cells were cultured on poly-D-lysine-coated 384-well plates at a density of 15,000 cells/well and incubated overnight at 37° C., 5% CO2. P2X4 function was assessed by measuring intracellular calcium fluxes caused by Benzoylbenzoyl-ATP (Bz-ATP) using the calcium-chelating dye Fluo8-AM (Molecular Devices) with the Fluorescent Imaging Plate Reader Tetra (FLIPR^Tetra; Molecular Devices CA). […]
Overview of recorded Human P2X4 HEK Cells (FLIPR Assay) avg Efficacy for various compounds

>>> result("CC(=O)N(c1cccc(C(F)(F)F)c1)c1cc(NC(=O)Cc2ccccc2Cl)ccn1")
"97%"
>>> result("COc1ccc(N(C(C)=O)c2cc(NC(=O)Cc3c(Cl)cccc3Cl)ccn2)cc1F")
"99%"
>>> result("CC(=O)N(c1cc(F)cc(Cl)c1)c1cc(NC(=O)Cc2cccc(F)c2Cl)ccn1")
"96%"

Task: Query: Human P2X4 HEK Cells (FLIPR Assay) avg Efficacy; subject: COc1cc(N(C(C)=O)c2cc(NC(=O)Cc3c(Cl)cccc3Cl)ccn2)ccc1F
Result: 96%

Task: Give its Human P2X4 HEK Cells (FLIPR Assay) avg Efficacy value. Item: CC(=O)N(c1cc(F)cc(F)c1)c1cc(NC(=O)Cc2c(Cl)cccc2Cl)cnn1
Result: 95%

Task: # query: Human P2X4 HEK Cells (FLIPR Assay) avg Efficacy of entry CC(=O)N(c1cc(NC(=O)Cc2c(F)cccc2Cl)ccn1)c1ccc(F)c(C)c1C
Result: 104%

Task: Consider the compound CC(=O)N(c1ccc(F)c(F)c1)c1cc(NC(=O)Cc2ccccc2C(F)(F)F)ccn1 and give its measured Human P2X4 HEK Cells (FLIPR Assay) avg Efficacy.
Result: 97%

Task: Name the reported Human P2X4 HEK Cells (FLIPR Assay) avg Efficacy value associated with the compound CC(=O)N(c1cc(F)cc(F)c1)c1cc(NC(=O)Cc2ccccc2OC(F)(F)F)ccn1
Result: 98%

----------
Target: human P2X4 (Homo sapiens)
Test: Human P2X4 HEK Cell FLIPR Assay
Conditions: HEK293 stably expressing human P2X4; agonist Bz-ATP 3 μM (EC80); read-out: Human P2X4 HEK Cells (FLIPR Assay) avg IC50
assayEndpoint: IC50 (nM)
Respond numerically; units are nM and should not be typed.

Some compounds with known IC50 results, for comparison:
>>> numericreadout("COc1cc(N(C(C)=O)c2cc(NC(=O)Cc3c(Cl)cccc3Cl)ccn2)ccc1F")
846
>>> numericreadout("CC(=O)N(c1cccc(Cl)c1)c1cc(NC(=O)Cc2ccccc2Cl)ccn1")
206
>>> numericreadout("CC(=O)N(c1cc(NC(=O)Cc2c(Cl)cccc2Cl)ccn1)c1ccccc1C(F)F")
402
>>> numericreadout("CC(=O)N(c1ccc(S(C)(=O)=O)c(Cl)c1)c1cc(NC(=O)Cc2c(F)cccc2Cl)ccn1")
649
>>> numericreadout("CC(=O)N(c1ccccc1)c1cc(NC(=O)Cc2cccc(F)c2Cl)cnn1")
655
>>> numericreadout("CC(=O)N(c1cc(F)cc(Cl)c1)c1cc(NC(=O)Cc2cccc(F)c2Cl)ccn1")
316
>>> numericreadout("CC(=O)N(c1cc(F)cc(F)c1)c1cc(NC(=O)Cc2c(Cl)cccc2Cl)ccn1")
169
>>> numericreadout("CC(=O)N(c1ccc(OC(F)F)cc1)c1cc(NC(=O)Cc2ccccc2Cl)ccn1")
519

Task: If you can, please state the reported IC50 value of COc1ccc(N(C(C)=O)c2cc(NC(=O)Cc3ccc(F)cc3Cl)ccn2)cc1F .
Result: 573

Task: Would you mind telling me what IC50 value was observed for CC(=O)N(c1ccc(OC(F)F)cc1)c1cc(NC(=O)Cc2cccc(F)c2Cl)ccn1 ?
Result: 579

Task: # IC50 lookup, item CC(=O)N(c1cc(F)c(C)c(F)c1)c1cc(NC(=O)Cc2ccc(F)cc2Cl)ccn1
Result: 705

Task: Quick one: IC50 for CC(=O)N(c1ccc(F)cc1)c1cc(NC(=O)Cc2c(Cl)cc(F)cc2Cl)ccn1 ?
Result: 335

Task: Field request: IC50 | item: CC(=O)N(c1ccc(F)c(F)c1)c1cc(NC(=O)Cc2c(Cl)cccc2Cl)ccn1
Result: 355

Task: Entry CC(=O)N(c1ccc(C)c(Cl)c1)c1cc(NC(=O)Cc2ccccc2Cl)ccn1 has what IC50?
Result: 569

----------
Biological target: human P2X4 (Homo sapiens, UniProt Q99571)
Construct: expressed in transfected cells
Sequence (Q99571 1-388): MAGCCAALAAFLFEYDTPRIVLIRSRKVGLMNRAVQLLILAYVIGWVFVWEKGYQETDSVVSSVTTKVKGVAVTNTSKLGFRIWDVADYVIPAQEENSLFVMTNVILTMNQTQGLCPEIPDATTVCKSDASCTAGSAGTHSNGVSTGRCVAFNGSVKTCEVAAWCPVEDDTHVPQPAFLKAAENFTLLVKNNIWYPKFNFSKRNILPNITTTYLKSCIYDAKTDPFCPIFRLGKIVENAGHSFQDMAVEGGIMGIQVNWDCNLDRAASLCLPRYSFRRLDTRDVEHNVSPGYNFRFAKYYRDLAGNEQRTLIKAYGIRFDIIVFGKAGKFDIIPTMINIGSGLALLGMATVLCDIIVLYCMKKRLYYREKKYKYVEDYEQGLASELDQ
Assay: Human P2X4 HEK Cell FLIPR Assay
Type: cell-based
Settings: HEK293 stably expressing human P2X4; agonist Bz-ATP 3 μM (EC80)
assayEndpoint: Human P2X4 HEK Cells (FLIPR Assay) avg Efficacy (%)
// return numeric value only (unit: %, not printed)

Worked set:
>>> numericreadout("COc1cccc(N(C(C)=O)c2cc(NC(=O)Cc3cccc(F)c3Cl)ccn2)c1")
97
>>> numericreadout("CC(=O)N(c1cccc(C#N)c1)c1cc(NC(=O)Cc2ccccc2Cl)ccn1")
96
>>> numericreadout("CC(=O)N(c1ccc(F)c(F)c1)c1cc(NC(=O)Cc2ccc(F)cc2Cl)ccn1")
95
>>> numericreadout("COc1cc(F)cc(N(C(C)=O)c2cc(NC(=O)Cc3cccc(F)c3Cl)ccn2)c1")
101

Task: Write down the reported Human P2X4 HEK Cells (FLIPR Assay) avg Efficacy of CC(=O)N(c1cc(F)c(C)c(F)c1)c1cc(NC(=O)Cc2ccccc2Cl)ccn1 , test system: human P2X4 (Homo sapiens, UniProt Q99571).
Result: 97

Task: Param readout= Human P2X4 HEK Cells (FLIPR Assay) avg Efficacy; system= human P2X4 (Homo sapiens, UniProt Q99571); entry= CC(=O)N(c1cc(NC(=O)Cc2c(Cl)cccc2Cl)ccn1)c1cc(F)ccc1Cl ; returns value.
Result: 97

Task: Recall the recorded Human P2X4 HEK Cells (FLIPR Assay) avg Efficacy for CC(=O)N(c1cc(F)cc(F)c1)c1cc(NC(=O)Cc2c(Cl)cc(F)cc2Cl)ccn1 with human P2X4 (Homo sapiens, UniProt Q99571) and state it.
Result: 98

Task: Write down the reported Human P2X4 HEK Cells (FLIPR Assay) avg Efficacy of CC(=O)N(c1ccc(F)c(F)c1)c1cc(NC(=O)Cc2c(C)cc(Cl)cc2Cl)ccn1 , test system: human P2X4 (Homo sapiens, UniProt Q99571).
Result: 96
